- target_of_assay: cyno LAIR-1-CD3ζ chimeric receptor on NFAT-GFP reporter cells (cynomolgus monkey; human)
- Sequence (P20963 other isoform, or with tags, fused parts or gaps mutant limits assumed): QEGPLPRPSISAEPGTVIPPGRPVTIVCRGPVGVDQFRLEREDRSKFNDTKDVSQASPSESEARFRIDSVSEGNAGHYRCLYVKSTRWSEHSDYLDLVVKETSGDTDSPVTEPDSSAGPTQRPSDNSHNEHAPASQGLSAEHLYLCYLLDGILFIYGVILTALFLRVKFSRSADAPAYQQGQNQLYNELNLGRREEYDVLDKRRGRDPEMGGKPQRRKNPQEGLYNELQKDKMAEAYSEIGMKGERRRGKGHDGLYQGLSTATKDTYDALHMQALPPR
- protocol_description: cell-based or functional assay
measured_quantity: IC50 (read off the curve): % GFP+ cyno LAIR-1 reporter cells on coated MARCO-his

Tell me the measured IC50 (read off the curve): % GFP+ cyno LAIR-1 reporter cells on coated MARCO-his of anti-LAIR-1 antibody ch57D12 (antibody, V domains shown, The prefix 'ch' is not defined) VH: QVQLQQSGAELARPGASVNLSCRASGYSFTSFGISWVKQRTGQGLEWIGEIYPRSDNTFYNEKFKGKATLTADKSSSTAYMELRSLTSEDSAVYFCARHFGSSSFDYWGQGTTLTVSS VL: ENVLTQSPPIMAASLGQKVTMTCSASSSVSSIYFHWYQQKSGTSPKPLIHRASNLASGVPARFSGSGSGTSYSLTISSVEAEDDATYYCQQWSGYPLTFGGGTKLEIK , please. ~1 nM
